Can you tell me composite z-score for the items I'm about to list?
Biological target: Calmodulin-1 (Homo sapiens)
Test: CALM1 binders on microarrays, EGTA buffer, profiling panel, biochemical, small-molecule microarray, Cy5-labelled CALM1 (AID 1111);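 further: labelled calmodulin applied in Tris saline Tween buffer holding calcium plus EGTA and DTT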
Conditions: Cy5-CALM1 binding fluorescence, higher = more signal
API doc: respond with a numeric literal and nothing else, no unit.

input: # get_value(readout='composite z-score', item= `COc1ccc(O[C@H]2C=C[C@@H](c3ccccc3)O[C@@H]2CON=CC[C@@H]2C=C[C@H](OC(C)=O)[C@@H](COC(C)=O)O2)cc1` )
output: -0.169

input: I'd like to know its composite z-score. The molecule in question is CCOC(=O)[C@H](Cc1ccccc1)NC(=O)CCC1CC(OC(=O)NCCc2ccc(F)cc2)CC2(CCCC(COC(=O)NCCc3ccc(Cl)cc3)O2)O1 (some centres not stated)
output: 1.28

input: Look up composite z-score for this molecule: `CO[C@H]1COC(=O)CC=C[C@@H](C)[C@H](OC)COC(=O)CCC[C@@H]1C`
output: -1.03

input: Please look up its composite z-score: `C=CC[C@@H]1C=C[C@H](ON=C(C)CCC(=O)OC[C@H]2O[C@H](C#Cc3ccccc3)C=C[C@@H]2Oc2ccc(C)cc2)[C@@H](CO)O1`
output: 0.759

input: Fill in: composite z-score of `CC(=O)OC[C@H]1O[C@H](CC=NO[C@H](C)c2cn([C@H](CO)Cc3ccccc3)nn2)C=C[C@@H]1OC(C)=O` is ___
output: 0.081

input: Need composite z-score of CC(=O)OC[C@H]1OC(ON=CC[C@@H]2C=C[C@H](OC(C)=O)[C@@H](COC(C)=O)O2)[C@H](OC(C)=O)[C@@H](OC(C)=O)[C@@H]1OC(C)=O (some centres not stated) , thanks.
output: -0.0804

input: Please look up its composite z-score: `Cc1ccc(S(=O)(=O)n2c3ccccc3c3nnc(C(=O)c4ccccc4)nc32)cc1`
output: -0.357

input: Could you share which composite z-score value was measured for `CC(C)=CCCC(C)=CCON=C1C[C@@H](O)[C@@H](O)[C@@H]2[C@@H]3C(=O)N(c4cccc(Oc5ccccc5)c4)C(=O)[C@@H]3CC[C@@H]12` ?
output: 0.33

input: What value of measured composite z-score is listed for COC(=O)[C@H](C)NC(=O)CCC1CC(OC(=O)NCc2ccc3c(c2)OCO3)CC2(CCCC(COC(=O)NCCc3ccccc3OC)O2)O1 (some centres not stated) ?
output: -0.173

input: composite z-score for `CCOC(=O)NN=C1C[C@@H](O)[C@@H](O)[C@@H]2[C@@H]3C(=O)N(Cc4ccc5c(c4)OCO5)C(=O)[C@@H]3CC[C@H]12` ?
output: -0.569

input: So what does the record say about composite z-score for `CCOC(=O)C1=NO[C@@]2(C=C(Br)C3(OCCCO3)[C@H]3O[C@H]32)C1` ?
output: -2.14

input: # input molecule: `O=C1[C@H]2[C@H]3[C@H](O)[C@H](O)CC(=NOC[C@@H](O)COCc4ccco4)[C@H]3CC[C@H]2C(=O)N1c1ccc(F)cc1F` ; wanted: its composite z-score
output: -1.3

input: I have this molecule here, `COc1cccc([C@H]2Oc3ccc(OC)cc3C(=NO[C@@H](C)c3cn([C@H](CO)Cc4ccccc4)nn3)[C@@H]2O)c1` , and I need its recorded composite z-score.
output: 0.465

input: Sample `COC(=O)C1=C(C)N(Cc2ccccc2)[C@]23O[C@](C(=O)OC)(C(=O)N2[C@@H]1c1ccccc1)C(C(=O)OC)=C3C(=O)OC` — what was its composite z-score?
output: -0.328

input: Please give the measured composite z-score for this molecule: `C=CC[C@@H]1C=C[C@H](ON=C(C)CCN2CCc3nc(-c4ccccc4)c(-c4ccccc4)cc3C2)[C@@H](CO)O1`
output: 0.636

input: Look at this molecule and give its reported composite z-score. `CO[C@H]1COC(=O)CC=C[C@@H](C)[C@H](NS(=O)(=O)c2ccc(C)cc2)COC(=O)CCC[C@@H]1C`
output: -0.789

input: Please give the measured composite z-score for this molecule: `COC(=O)CC=C[C@@H](C)[C@@H](C=NOC[C@H]1O[C@H](c2ccccc2)C=C[C@@H]1Oc1ccc(OC)cc1)NS(=O)(=O)c1ccc(C)cc1`
output: -1.07

input: Reported composite z-score, molecule `COc1ccc(COC(=O)NN=C2C[C@@H](O)[C@@H](O)[C@@H]3[C@@H]4C(=O)N(c5ccc(F)cc5F)C(=O)[C@@H]4CC[C@H]23)cc1` : ____
output: -0.252

input: Given the entry CCOC(=O)[C@H](CC(C)C)NC(=O)CCC1CC(OC(=O)NCCc2ccc(F)cc2)CC2(CCCC(COC(=O)NCCc3ccc(Cl)cc3)O2)O1 (some centres not stated) , report its measured composite z-score.
output: -0.222

input: Which measured composite z-score value corresponds to CCOC(=O)[C@H](Cc1ccccc1)NC(=O)CCC1CC(OC(=O)NCCc2ccc(F)cc2)CC2(CCCC(COC(=O)NCCOC)O2)O1 (some centres not stated) ?
output: 0.276

input: // returns reported composite z-score for input `CO[C@H]1COC(=O)[C@@H](Cc2ccccc2)NC(=O)[C@@H](C)COC(=O)CCC[C@@H]1C`
output: -0.273

input: Recorded composite z-score of `COc1cccc([C@H]2Oc3ccc(OC)cc3C(=NO[C@@H]3O[C@H](COC(C)=O)[C@@H](OC(C)=O)[C@H](OC(C)=O)[C@H]3OC(C)=O)[C@@H]2O)c1` , please.
output: -0.446

input: composite z-score lookup needed for `CO[C@H]1COC(=O)[C@@H](C)COC(=O)[C@H](C)NC(=O)CC=C[C@H]1C` , thanks.
output: -0.451

input: # query: composite z-score of entry `COc1ccc(O[C@H]2C=C[C@@H](c3ccccc3)O[C@@H]2COC(=O)CCC(C)=NO[C@@H]2O[C@H](COC(C)=O)[C@@H](OC(C)=O)[C@H](OC(C)=O)[C@H]2OC(C)=O)cc1`
output: -0.126

input: What does the record list as composite z-score for `COC(=O)[C@@H]1CC[C@H](C)[C@@H](c2ccc(C)cc2)N1C(=O)c1ccc(C=NOC[C@@H](C)[C@H](OCc2ccccc2)C(C)C)cc1` ?
output: -0.0027

input: Name the recorded composite z-score for `COC(=O)CC=C[C@@H](C)[C@@H](C=NO[C@@H](C)c1cc(-c2c(C)cc(C)cc2C)no1)NS(=O)(=O)c1ccc(C)cc1` .
output: -0.3

input: composite z-score for CCOC(=O)[C@H](CC(C)C)NC(=O)CCC1CC(OC(=O)NCCc2ccc(F)cc2)CC2(CCCC(COC(=O)NCCC(C)C)O2)O1 (some centres not stated) ?
output: 0.586

====

Target: NADPH oxidase 5 (Homo sapiens) (UniProt Q96PH1)
Sequence (Q96PH1 whole entry, looked up): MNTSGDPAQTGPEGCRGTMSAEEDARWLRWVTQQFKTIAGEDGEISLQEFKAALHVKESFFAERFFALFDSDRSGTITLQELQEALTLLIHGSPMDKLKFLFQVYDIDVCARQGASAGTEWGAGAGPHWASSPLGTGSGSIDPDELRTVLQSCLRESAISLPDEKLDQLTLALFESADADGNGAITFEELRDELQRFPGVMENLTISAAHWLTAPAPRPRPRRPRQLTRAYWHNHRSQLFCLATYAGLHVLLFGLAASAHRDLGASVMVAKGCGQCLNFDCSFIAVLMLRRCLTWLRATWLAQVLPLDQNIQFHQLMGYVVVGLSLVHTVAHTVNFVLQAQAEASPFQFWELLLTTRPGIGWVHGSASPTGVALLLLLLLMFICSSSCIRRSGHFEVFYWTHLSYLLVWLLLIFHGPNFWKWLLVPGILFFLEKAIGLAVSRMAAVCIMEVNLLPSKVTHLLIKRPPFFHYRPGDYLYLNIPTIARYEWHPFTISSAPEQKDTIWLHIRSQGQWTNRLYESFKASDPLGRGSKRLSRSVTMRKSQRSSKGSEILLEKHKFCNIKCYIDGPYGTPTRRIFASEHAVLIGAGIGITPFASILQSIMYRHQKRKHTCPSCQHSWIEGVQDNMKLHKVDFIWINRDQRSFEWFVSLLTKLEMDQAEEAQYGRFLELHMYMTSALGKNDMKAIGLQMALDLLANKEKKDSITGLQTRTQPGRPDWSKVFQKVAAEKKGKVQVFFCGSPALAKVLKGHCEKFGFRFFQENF
Experiment: NOX5-dependent H2O2 signal modulators, primary screen, NOX inhibitor project, cell-based, HEK293-NOX5, Amplex Red fluorescence (AID 1161)
Settings: HEK293-NOX5, ionomycin, 45 min, higher = more signal
Could you label it True if measured z-score is 0.2 or higher, and False otherwise?

input: Reported z-score at or above 0.2? CCOC(=O)[C@H](Cc1ccccc1)NC(=O)CCC1CC(OC(=O)NCCc2ccc(F)cc2)CC2(CCCC(COC(=O)NCCCN3CCCC3=O)O2)O1 (stereo partly drawn)
output: False

input: Please indicate if the recorded z-score for O=C1CCCC=C1C(CCc1ccccc1)OC(=O)c1ccc(Br)cc1 (stereo not drawn) meets or exceeds 0.2.
output: False

input: Threshold query (z-score >= 0.2) on `CCCCc1nc2c(c3c1C[C@H](C)OC3)CN(CCOc1ccccc1)CC2`
output: True

input: Evaluate `CCOC(=O)NN=C1C[C@@H](O)[C@@H](O)[C@@H]2[C@@H]3C(=O)N(c4cccc(Oc5ccccc5)c4)C(=O)[C@@H]3CC[C@@H]12` : z-score at minimum 0.2?
output: False

input: Could you please find out whether `C[C@@H](c1ccccc1)N1C(=O)[C@H]2[C@H]3[C@H](O)[C@H](O)CC(=O)[C@H]3CC[C@H]2C1=O` has z-score that meets 0.2 or exceeds it?
output: True

input: Does the compound `COc1ccc(O[C@H]2C=C[C@@H](c3ccccc3)O[C@@H]2CON=C2[C@H]3CCn4c(=O)n(-c5ccccc5)c(=O)n4[C@H]3[C@H](O)[C@@H]3O[C@H]23)cc1` have recorded z-score that is 0.2 or more?
output: False

input: Identify whether the reported z-score of the following compound is 0.2 or greater: `CC(C)(C)N1C(=O)[C@H]2[C@H]3[C@H](O)[C@H](O)CC(=O)[C@H]3CC[C@H]2C1=O`
output: False

input: Confirm if z-score reported for the compound `COC(=O)CC=C[C@@H](C)[C@@H](C=NO[C@@H]1O[C@H](COC(C)=O)[C@@H](OC(C)=O)[C@H](OC(C)=O)[C@H]1OC(C)=O)OC` is 0.2 or above.
output: True

input: Please tell me: is the compound `O=C1C=C[C@@H](O)[C@@H]2[C@@H]3C(=O)N(C[C@@H]4CCCO4)C(=O)[C@@H]3CC[C@@H]12` at or over 0.2 in terms of z-score?
output: True

input: Kindly determine if z-score recorded for `CSCC[C@@H]1NC(=O)CC=C[C@@H](C)COC(=O)[C@@H](C)COC1=O` is above or exactly 0.2.
output: True

input: Check the entry `CO[C@@H]1COC(=O)[C@@H](C)COC(=O)[C@@H](C)NC(=O)CC=C[C@@H]1C` : does z-score equal or exceed 0.2?
output: False

input: Identify whether the reported z-score of the following compound is 0.2 or greater: `CC(C)=CCCC(C)=CCON=C1C[C@@H](O)[C@@H](O)[C@@H]2[C@@H]3C(=O)N(c4cccc(Oc5ccccc5)c4)C(=O)[C@@H]3CC[C@@H]12`
output: False

input: Say whether `CC(=O)OC[C@H]1O[C@H](CCON=C2[C@H]3CCn4c(=O)n(-c5ccccc5)c(=O)n4[C@H]3[C@H](O)[C@@H]3O[C@H]23)C=C[C@@H]1OC(C)=O` shows z-score of 0.2 or more.
output: False

input: Record `CC(=O)OC[C@H]1O[C@H](CC=NO[C@H](C)c2cn([C@H](CO)Cc3ccccc3)nn2)C=C[C@@H]1OC(C)=O` ; criterion: z-score no lower than 0.2. Met?
output: False

input: Exam item: decide whether the reported z-score for CCOC(=O)[C@H](Cc1ccccc1)NC(=O)CCC1CC(OC(=O)NCCc2ccc(F)cc2)CC2(CCCC(COC(=O)NCCOC)O2)O1 (stereo partly drawn) is at least 0.2.
output: False

input: # bool: z-score of CCOC(=O)[C@H](CC(C)C)NC(=O)CCC1CC(OC(=O)NCCc2ccc(F)cc2)CC2(CCCC(COC(=O)NCC(c3ccccc3)c3ccccc3)O2)O1 (stereo partly drawn) >= 0.2
output: True

input: // inclusive: z-score at least 0.2? input: `COc1ccc(O[C@H]2C=C[C@@H](c3ccccc3)O[C@@H]2CON=C(C)CCN2CCc3nc(-c4ccccc4)c(-c4ccccc4)cc3C2)cc1`
output: False

input: Is z-score at least 0.2? Consider `CO[C@H]1COC(=O)CCC[C@@H](C)[C@H](OC)COC(=O)[C@@H]2CCCN2C(=O)CC=C[C@@H]1C`
output: True

input: Check this compound for z-score at or above 0.2: `CCc1cc2c(nc1CC)CCN(CCC(C)=NO[C@H](C)c1cn([C@H](CO)Cc3ccccc3)nn1)C2`
output: True

input: Does the compound `CC(CCC(=O)OC[C@H]1O[C@H](C#Cc2ccccc2)C=C[C@@H]1Oc1ccc(C)cc1)=NO[C@H](C)c1cn([C@H](CO)Cc2ccccc2)nn1` have recorded z-score that is 0.2 or more?
output: True

input: Assess whether reported z-score for `CON=C1[C@H]2CCn3c(=O)n(-c4ccccc4)c(=O)n3[C@H]2[C@H](O)[C@@H]2O[C@H]12` sits at 0.2 or higher.
output: True

input: Confirm if z-score reported for the compound `COc1ccc(COC(=O)NN=C2C[C@@H](O)[C@@H](O)[C@@H]3[C@@H]4C(=O)N(Cc5ccccc5)C(=O)[C@@H]4CC[C@H]23)cc1` is 0.2 or above.
output: True

input: Hello, I need to know if CCC1=NOC(CCC2CC(OC(=O)NCc3cccc4c3OCO4)CC3(CCCC(COC(=O)NCCc4ccccc4OC)O3)O2)C1 (stereo not drawn) has measured z-score not below 0.2. Thanks!
output: False

input: Determine whether measured z-score meets or exceeds 0.2 for `O=C(NN=C1C[C@@H](O)[C@@H](O)[C@@H]2[C@@H]3C(=O)N(Cc4ccccc4)C(=O)[C@@H]3CC[C@@H]12)OCc1ccccc1`
output: True

input: Would you say `CO[C@H]1COC(=O)CCC[C@@H](C)[C@H](OC)COC(=O)[C@@H](C)NC(=O)CC=C[C@@H]1C` shows z-score at minimum 0.2?
output: False

input: Decide: is the reported value of z-score for `CC(C)=CCCC(C)=CCON=C1C[C@@H](O)[C@@H](O)[C@@H]2[C@@H]3C(=O)N(Cc4ccccc4)C(=O)[C@@H]3CC[C@@H]12` equal to or greater than 0.2?
output: False

input: Is the recorded value of z-score equal to or greater than 0.2 for this compound? `COc1cccc([C@H]2Oc3ccc(OC)cc3C(=NO[C@@H]3O[C@H](COC(C)=O)[C@@H](OC(C)=O)[C@H](OC(C)=O)[C@H]3OC(C)=O)[C@@H]2O)c1`
output: True

input: Has `CC(C)CON=C1C[C@@H](O)[C@@H](O)[C@@H]2[C@@H]3C(=O)N(c4ccc(F)cc4F)C(=O)[C@@H]3CC[C@H]12` a recorded z-score greater than or equal to 0.2?
output: False
